experiment: Oral bioavailability in Sprague-Dawley rat at 5 mg/kg measured upto 24 hrs by LC-MS/MS analysis; assay type: ADME, organism-based; conditions: in vivo
Answer each item with its documented bioavailability.
Numbers only, in %.

Use the examples below as a reference point.
>>> df
                                   molecule  valuereported
0  Cc1cc(F)c(C(=O)Nc2cccc(-c3nncn3C(C)C)n2)cc1-n1cnc(C2CC2)c1            129
1  CN1C(=O)CCCc2cc(F)c(C(=O)Nc3cccc(-c4nncn4C4CC4)n3)cc21            121
2  CC(C)n1cnnc1-c1cccc(NC(=O)c2cc3c(cc2F)CCC(=O)N3C)n1           80.7

Hey, quick one: what's bioavailability for each of these?
1. CC(C)n1cnnc1-c1cccc(NC(=O)c2cc3c(cc2F)OCc2cncn2-3)n1
2. O=C1COc2cc(F)c(C(=O)Nc3cccc(-c4nncn4-c4ccccc4)n3)cc2N1
3. CC(C)n1cnnc1-c1cccc(NC(=O)c2cc3c(cc2F)C(C)(C)CC(=O)N3)n1
4. CC(CO)n1cnnc1-c1cccc(NC(=O)c2cc3c(cc2F)CCCC(=O)N3C)n1 (stereo unspecified)
5. CC(C)n1cnnc1-c1cccc(NC(=O)c2cc3c(cc2F)OCC(=O)N3C)n1

1. 86.9
2. 47.9
3. 75.9
4. 5.9
5. 97.9

Hey, quick one: what's bioavailability for each of these?
1. CC(C)n1cnnc1-c1cccc(NC(=O)c2cc3c(cc2F)CCC(=O)N3)n1
2. O=C1CCCc2cc(F)c(C(=O)Nc3cccc(-c4nncn4C4CC4)n3)cc2N1
3. CC(C)n1cnnc1-c1cccc(NC(=O)c2cc3c(cc2F)CCCC(=O)N3C)n1

[8.8, 47, 116]

---

test: Metabolic stability in human liver microsomes assessed as clearance at 1 uM measured upto 90 mins by LC-MS/MS analysis; assay type: ADME, Microsome; conditions: read-out: CLH
experimentalEndpoint: CLint scaled at 1 µM (mL/min/kg)
Give bare numbers, in mL/min/kg.

Use the examples below as a reference point.
>>> df
                                   compound   unittext  valuereported
0  CC(C)n1cnnc1-c1cccc(NC(=O)c2cc3c(cc2F)CCC(=O)N3C)n1  mL/min/kg            7.3
1  O=C1COc2cc(F)c(C(=O)Nc3cccc(-c4nncn4C4CC4)n3)cc2N1  mL/min/kg              4
2  CC(C)n1cnnc1-c1cccc(NC(=O)c2cc3c(cc2F)OCC(=O)N3)n1  mL/min/kg              3
3  CC(CO)n1cnnc1-c1cccc(NC(=O)c2cc3c(cc2F)CCCC(=O)N3)n1 (configuration not stated)  mL/min/kg            1.8
4  CC(C)n1cnnc1-c1cccc(NC(=O)c2cc3c(cc2F)OCc2cncn2-3)c1  mL/min/kg           63.3

Hey, quick one: what's CLint scaled at 1 µM for each of these?
1. CC(C)n1cnnc1-c1cccc(NC(=O)c2cc3c(cc2F)OCC(=O)N3C)n1
2. CC(C)n1cnnc1-c1cccc(NC(=O)c2cc3c(cc2F)OCc2cncn2-3)n1

5.1
16.3

---

assay: Apparent […] clearance in Sprague-Dawley rat at 0.5 mg/kg, iv measured upto 24 hrs by LC-MS/MS analysis; format: ADME, organism-based; conditions: in vivo
experimentalEndpoint: CL/F (mL/min/kg)
One number for each entry, in mL/min/kg.

Use the examples below as a reference point.
>>> df
                          structureassmiles  experimentalendpoint  valuereported
0  O=C1CCc2cc(F)c(C(=O)Nc3cccc(-c4nncn4C4CC4)n3)cc2N1                  CL/F           17.7
1  O=C1COc2cc(F)c(C(=O)Nc3cccc(-c4nncn4C4CC4)n3)cc2N1                  CL/F             14
2  CC(C)n1cnnc1-c1cccc(NC(=O)c2cc3c(cc2F)OC(C)(C)C(=O)N3C)n1                  CL/F             38

Now let's try a different one.
Please look up its CL/F: CC(C)n1cnnc1-c1cccc(NC(=O)c2cc3c(cc2F)OC(C)(C)C(=O)N3)n1
30
